- system under test: recombinant human AKR1C3 (Homo sapiens (Human), UniProt P42330)
- Sequence (P42330 whole entry): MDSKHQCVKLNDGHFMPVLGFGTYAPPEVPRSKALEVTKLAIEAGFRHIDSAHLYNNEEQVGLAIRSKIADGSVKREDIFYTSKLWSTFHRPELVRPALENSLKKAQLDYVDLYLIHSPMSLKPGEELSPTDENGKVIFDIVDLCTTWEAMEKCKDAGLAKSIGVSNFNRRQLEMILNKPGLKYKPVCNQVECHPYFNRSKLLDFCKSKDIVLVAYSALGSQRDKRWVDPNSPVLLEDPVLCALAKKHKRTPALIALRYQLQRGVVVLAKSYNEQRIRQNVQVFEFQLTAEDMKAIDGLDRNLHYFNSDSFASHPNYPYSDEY
- assay name: AKR1C3-inhibitory activity assay (Coumberone to Coumberol fluorescence)
- condition: recombinant human AKR1C3, 15 min pre-incubation, 10 μM NADPH, 0.3 μM Coumberone
- Protocol: The AKR1C3-inhibitory activity of the substances of the present invention was measured in the AKR1C3 assay described in the paragraphs below. Essentially, the enzyme activity is measured by quantification of the generation of Coumberol from Coumberone (Halim et al. J. AM. CHEM. SOC. 2008, 130:14123-14128 and Yee et al. Proc. Natl. Acad. Sci. USA 2006, 103:13304-13309). […]
Item-by-item account of log10 IC50
Please be aware that the numbers have been log10-transformed from IC50 in nM.

Example compounds with recorded log10 IC50:
INSERT INTO assay_data (compound, recorded_result) VALUES
  ('O=C(c1cnn[nH]1)N1CC2CCC(C1)N2S(=O)(=O)c1ccc(Cl)cc1', 0.18),
  ('O=C(c1cnn[nH]1)N1CC2CCC(C1)N2S(=O)(=O)c1cccc2cccnc12', 0.53);

For the compound "O=C(c1cnn[nH]1)N1CC2CCC(C1)N2S(=O)(=O)c1ccc(F)cc1Cl" , the measured log10 IC50 on recombinant human AKR1C3 (Homo sapiens (Human), UniProt P42330) was -0.05

---

- system under test: recombinant human AKR1C3 (Homo sapiens (Human))
- assay name: AKR1C3-inhibitory activity assay (Coumberone to Coumberol fluorescence)
- condition: recombinant human AKR1C3, 15 min pre-incubation, 10 μM NADPH, 0.3 μM Coumberone
quantity measured: pIC50
pIC50 is defined as minus the log10 of a concentration measured in mol/L.

Example molecules with recorded pIC50:
INSERT INTO results (compound, system_under_test, quantity_measured, recorded_result) VALUES
  ('COc1ccc(OC)c(S(=O)(=O)N2C3CCC2CN(C(=O)c2cnn[nH]2)C3)c1', 'recombinant human AKR1C3 (Homo sapiens (Human))', 'pIC50', 7.53),
  ('O=C(c1cnn[nH]1)N1CC2CCC(C1)N2S(=O)(=O)c1ccc2nsnc2c1', 'recombinant human AKR1C3 (Homo sapiens (Human))', 'pIC50', 8.92),
  ('O=C(c1cnn[nH]1)N1CC2CCC(C1)N2S(=O)(=O)c1ccc(O)cc1', 'recombinant human AKR1C3 (Homo sapiens (Human))', 'pIC50', 8.55);

For the molecule "O=C(c1cnn[nH]1)N1CC2CCC(C1)N2S(=O)(=O)c1cccc2c1OCC2" , the measured pIC50 on recombinant human AKR1C3 (Homo sapiens (Human)) was 9.22

For the molecule "O=C(c1cnn[nH]1)N1CC2CCC(C1)N2S(=O)(=O)c1cccc(Cl)c1" , the measured pIC50 on recombinant human AKR1C3 (Homo sapiens (Human)) was 8.92

---

Item-by-item account of IC50
- system under test: recombinant human AKR1C3 (Homo sapiens (Human))
- assay name: AKR1C3-inhibitory activity assay (Coumberone to Coumberol fluorescence)
- condition: recombinant human AKR1C3, 15 min pre-incubation, 10 μM NADPH, 0.3 μM Coumberone

INSERT INTO results (compound, quantity_measured, recorded_result) VALUES
  ('O=C(c1c[nH]nn1)N1CC2CCC(C1)N2S(=O)(=O)c1cc(F)ccc1F', 'IC50', '1.1 nM');

The recorded IC50 for entry "COc1ccc(C#N)cc1S(=O)(=O)N1C2CCC1CN(C(=O)c1cnn[nH]1)C2" equals 28 nM

The recorded IC50 for entry "O=C(c1cnn[nH]1)N1CC2CCC(C1)N2S(=O)(=O)c1cccc2nsnc12" equals 1.2 nM

The recorded IC50 for entry "O=C(c1cnn[nH]1)N1CC2CCC(C1)N2S(=O)(=O)c1ccc(F)cc1" equals 2.2 nM

The recorded IC50 for entry "COc1ccc(Cl)cc1S(=O)(=O)N1C2CCC1CN(C(=O)c1cnn[nH]1)C2" equals 9.7 nM

The recorded IC50 for entry "O=C(c1cnn[nH]1)N1CC2CC[C@@H](C1)N2S(=O)(=O)c1cccc(Cl)c1Cl" equals 0.8 nM

The recorded IC50 for entry "O=C(c1cnn[nH]1)N1CC2CCC(C1)N2S(=O)(=O)c1cccc(OC(F)(F)F)c1" equals 1.8 nM

The recorded IC50 for entry "CCc1ccc(S(=O)(=O)N2C3CCC2CN(C(=O)c2cnn[nH]2)C3)cc1" equals 1.2 nM

The recorded IC50 for entry "O=C(c1c[nH]nn1)N1CC2CCC(C1)N2S(=O)(=O)c1ccccc1" equals 3.7 nM
